From: paper PMC7503464

molecular target: dihydrofolate reductase (DHFR; wt-DHFR and midW mutants) (Escherichia coli, UniProt P0ABQ4, W133F/W22F/W30F/W47F); assay: biochemical
observation_type: pKd
Give bare numbers, as −log10 of the molar value.

According to the records, this molecule Nc1nc2ncc(CNc3ccc(C(=O)N[C@@H](CCC(=O)O)C(=O)O)cc3)nc2c(=O)[nH]1 [folate] displays pKd of 5.08
